- experimentNotes: Lung S9 metabolism
- Format: in vitro ADME
- conditionInfo: human lung S9; qualitative observation of O-sulfate metabolite peak
metricName: Sulfate Appearance

molecule="CCc1cc(O)c(F)cc1-c1ccc2c(-c3nc4c([nH]3)CN(C)[C@H](C(=O)N3CCN(CCO)C[C@H]3C)C4)n[nH]c2c1 [Compound C-5]" valuereported=Yes
molecule="CCc1cc(O)ccc1-c1ccc2c(-c3nc4c([nH]3)CN(C)[C@H](C(=O)N3CCN(CCO)C[C@H]3C)C4)n[nH]c2c1 [Compound 5]" valuereported=Yes
molecule="CCCN1Cc2[nH]c(-c3n[nH]c4cc(-c5cc(F)c(O)cc5CC)ccc34)nc2C[C@H]1C(=O)N1C[C@@H]2C[C@H]1CN2C [Compound C-2]" valuereported=Yes

---

- experimentNotes: Lung S9 metabolism
- Assay type: in vitro ADME
- conditionInfo: human lung S9; qualitative observation of O-sulfate metabolite peak
metricName: Sulfate Appearance

structurestring=CCCN1Cc2[nH]c(-c3n[nH]c4cc(-c5ccc(O)cc5CC)ccc34)nc2C[C@H]1C(=O)N1C[C@@H]2C[C@H]1CN2C valuereported=Yes
structurestring=CCc1cc(O)c(F)cc1-c1ccc2c(-c3nc4c([nH]3)CN(C(C)C)[C@H](C(=O)N3CC[C@H](N(C)C)C3)C4)n[nH]c2c1 valuereported=Yes
structurestring=CCCN1Cc2[nH]c(-c3n[nH]c4cc(-c5ccc(O)cc5CC)ccc34)nc2C[C@H]1C(=O)N1CCN(CCO)CC1 valuereported=Yes
